Tested on: China jute (Ab)
Assay: Test Example 4: crop plant selectivity by upland field soil treatment (cotton), herbicidal effects
Type: in vivo
Set-up: scale not given here
Conditions: dose 6.3 g ai/10 a, evaluated 21st day after application
readout type: Herbicidal effects Ab

C#CCn1c(=O)sc2cc(F)c(-c3ccc(C(F)(F)F)n(C)c3=O)cc21 [Compound No. 3-1] | 5
CSCOc1cc(-c2ccc(C(F)(F)F)n(C)c2=O)c(F)cc1Cl [Compound 1-208] | 5
Cn1cc(-c2cc(Oc3ccccc3)c(Cl)cc2F)c(=O)cc1C(F)(F)F [Compound No. 6-19] | 5
Cn1c(C(F)(F)F)ccc(-c2cc(Oc3ncccn3)c(Cl)cc2Cl)c1=O [1-41] | 5
COc1cc(Cl)cc(F)c1-c1ccc(C(F)(F)F)n(C)c1=O [1′-1] | 5
C#CC(CC)Oc1cc(-c2ccc(C(F)(F)F)n(C)c2=O)c(F)cc1Cl (racemic) [1-122] | 5
C#CCOc1cc(-c2cn(C)c(C(F)(F)F)cc2=O)c(F)cc1Cl [Compound 6-9] | 5
Cn1c(C(F)(F)F)ccc(-c2cc(Oc3ncccn3)c(Cl)cc2F)c1=O [Compound No. 1-27] | 5
CCc1cc2c(Cl)cc(F)c(-c3ccc(C(F)(F)F)n(C)c3=O)c2o1 [Compound 5-2] | 5
COc1cc(-c2ccc(C(F)(F)F)n(C)c2=O)c(Cl)cc1Cl [Compound 1-205] | 4
C#CC(C)Oc1cc(-c2ccc(C(F)(F)F)n(C)c2=O)c(F)cc1Cl (centres unmarked) [1-17] | 4
CCCON=Cc1cc(-c2ccc(C(F)(F)F)n(C)c2=O)c(F)cc1Cl [Compound 1-188] | 5
Cn1c(C(F)(F)F)ccc(-c2cc(Br)c(Cl)cc2F)c1=O [1-138] | 4
CCCc1cc2c(-c3ccc(C(F)(F)F)n(C)c3=O)c(F)cc(Cl)c2o1 [Compound 4-3] | 5
Cn1c(C(F)(F)F)ccc(-c2cc(OCC#N)c(Cl)cc2F)c1=O [1-25] | 5
C=CCN1C(=O)COc2cc(F)c(-c3ccc(C(F)(F)F)n(C)c3=O)cc21 [Compound 2-7] | 5
COCCOc1cc(-c2ccc(C(F)(F)F)n(C)c2=O)c(F)cc1Cl [1-170] | 5

---

Each entry below lists one item and its recorded Phytotoxicity Go value.
Tested on: cotton (Go)
Experiment: Test Example 4: crop plant selectivity by upland field soil treatment (cotton), phytotoxicity
Type: in vivo
Parameters: scale not given here
Conditions: dose 6.3 g ai/10 a, evaluated 21st day after application
readout type: Phytotoxicity Go

CON=Cc1cc(-c2ccc(C(F)(F)F)n(C)c2=O)c(F)cc1Cl | 0
CNS(=O)(=O)c1cc(-c2ccc(C(F)(F)F)n(C)c2=O)c(F)cc1Cl | 1
C=CCN1C(=O)COc2cc(F)c(-c3ccc(C(F)(F)F)n(C)c3=O)cc21 | 1
C=CCOc1cc(-c2ccc(C(F)(F)F)n(C)c2=O)c(F)cc1Cl | 0
CCOc1cc(-c2ccc(C(F)(F)F)n(C)c2=O)c(F)cc1Cl | 0
Cn1cc(-c2cc(Oc3ccccc3)c(Cl)cc2F)c(=O)cc1C(F)(F)F | 0
CCCC(=O)c1cc(-c2ccc(C(F)(F)F)n(C)c2=O)c(F)cc1Cl | 1
Cc1cc2c(-c3ccc(C(F)(F)F)n(C)c3=O)c(F)cc(Cl)c2o1 | 1
Cn1c(C(F)(F)F)ccc(-c2c(F)cc(Cl)c3occc23)c1=O | 1
CCON=Cc1cc(-c2ccc(C(F)(F)F)n(C)c2=O)c(F)cc1Cl | 0
C#CCN1C(=O)COc2cc(F)c(-c3cn(C)c(C(F)(F)F)cc3=O)cc21 | 1
Cn1c(C(F)(F)F)ccc(-c2cc(OCC(F)(F)F)c(Cl)cc2F)c1=O | 0
